Source of measurements: ChEMBL document CHEMBL4145688

# test: Distribution coefficient between 1-octanol and aqueous phosphate buffer, logD of the compound in pH 7.4 buffer
# Type: physicochemical
# reportedConditions: 1-octanol/aqueous phosphate buffer
observable: logD

Can you share its logD? I mean this compound: CCS(=O)(=O)c1ccc(CC(=O)Nc2cc(-c3cccnc3OCc3ccccc3)cs2)cc1 > 4

Can you share its logD? I mean this compound: CCOc1ncccc1-c1csc(NC(=O)Cc2ccc(S(=O)(=O)CC)cc2)c1 ≥ 4

Can you share its logD? I mean this compound: CCS(=O)(=O)c1ccc(C(NC(C)=O)C(=O)Nc2cc(-c3cccnc3OCc3ccccc3)cs2)cc1 (stereo not given) > 4

Can you share its logD? I mean this compound: CCS(=O)(=O)c1ccc(CC(=O)Nc2cc(-c3cccnc3OC/C=C/c3ccccc3)cs2)cc1 ≥ 4

Can you share its logD? I mean this compound: CCS(=N)(=O)c1ccc(CC(=O)Nc2cc(-c3cc(C#N)ccc3OC)cs2)cc1 (stereo not given) 2.8

====

Hi there, I'd appreciate the recorded IC50 for every entry that follows.
Number in nM, nothing else.

State its IC50 on Nuclear receptor ROR-gamma (Homo sapiens, UniProt P51449): CCS(=O)(=O)c1ccc(C(NC(C)=O)C(=O)Nc2cc(-c3cc(C#N)cnc3OC)cs2)cc1 (stereo not given) 14

State its IC50 on Nuclear receptor ROR-gamma (Homo sapiens, UniProt P51449): CCS(=O)(=O)c1ccc(C(NC(C)=O)C(=O)Nc2cc(-c3cccnc3Oc3ccc(C#N)cc3)cs2)cc1 (stereo not given) 66

State its IC50 on Nuclear receptor ROR-gamma (Homo sapiens, UniProt P51449): CCS(=O)(=O)N1CCC(CC(=O)Nc2cc(-c3cc(C#N)cnc3OC)cs2)CC1 3250

State its IC50 on Nuclear receptor ROR-gamma (Homo sapiens, UniProt P51449): CCCOc1ncccc1-c1csc(NC(=O)Cc2ccc(S(=O)(=O)CC)cc2)c1 59

State its IC50 on Nuclear receptor ROR-gamma (Homo sapiens, UniProt P51449): CCS(=O)(=O)c1ccc(CC(=O)Nc2cc(-c3cc(C#N)ccc3Cl)cs2)cc1 50

State its IC50 on Nuclear receptor ROR-gamma (Homo sapiens, UniProt P51449): CCS(=O)(=O)c1ccc(CC(=O)Nc2cc(-c3cc(C#N)cnc3OC)cs2)cc1 30

State its IC50 on Nuclear receptor ROR-gamma (Homo sapiens, UniProt P51449): CCS(=O)(=O)c1ccc(CC(=O)Nc2cc(-c3cccnc3Oc3ccc(OC(F)(F)F)cc3)cs2)cc1 33

State its IC50 on Nuclear receptor ROR-gamma (Homo sapiens, UniProt P51449): CCS(=O)(=O)c1ccc(CC(=O)Nc2cc(-c3ccc(C#N)cc3Cl)cs2)cc1 1160

State its IC50 on Nuclear receptor ROR-gamma (Homo sapiens, UniProt P51449): CCS(=O)(=O)c1ccc(CC(=O)Nc2cc(-c3cccnc3OCC(F)(F)F)cs2)cc1 18

State its IC50 on Nuclear receptor ROR-gamma (Homo sapiens, UniProt P51449): CCS(=O)(=O)c1ccc(CC(=O)Nc2cc(-c3cc(Cl)cc(C#N)c3)cs2)cc1 50

State its IC50 on Nuclear receptor ROR-gamma (Homo sapiens, UniProt P51449): CCS(=O)(=O)c1ccc(CC(=O)Nc2cc(-c3cccnc3OCc3ccc(C#N)cc3)cs2)cc1 10

State its IC50 on Nuclear receptor ROR-gamma (Homo sapiens, UniProt P51449): CCS(=O)(=O)c1ccc(CC(=O)Nc2cc(-c3cccnc3Oc3ccccc3)cs2)cc1 46

State its IC50 on Nuclear receptor ROR-gamma (Homo sapiens, UniProt P51449): CCS(=O)(=O)c1ccc(CC(=O)Nc2cc(-c3cccnc3OC/C=C/c3ccccc3)cs2)cc1 11

State its IC50 on Nuclear receptor ROR-gamma (Homo sapiens, UniProt P51449): CCOc1ncccc1-c1csc(NC(=O)Cc2ccc(S(=O)(=O)CC)cc2)c1 150

State its IC50 on Nuclear receptor ROR-gamma (Homo sapiens, UniProt P51449): CCS(=O)(=O)c1ccc(C(N)C(=O)Nc2cc(-c3cc(C#N)cc(F)c3OC)cs2)cc1 (stereo not given) 75
